assaySummary: Phase I modified release tablets BID pharmacokinetics
Type: in vivo, human
studyConditions: human, plasma, oral, 125 mg, MR tablets 125 mg BID, Day 7, mean; read-out: CSS
quantity: concentration at 7 day (ng/mL)

| compound | quantity | obsValue |
| --- | --- | --- |
| O=S1(=O)c2ccc(F)cc2Oc2cc(OCC(F)(F)F)ccc21 [CX157] | concentration at 7 day | 107 |

----------
assaySummary: Plasma and brain CX157 concentrations after oral dosing in rats
studyConditions: male, Sprague-Dawley, rat, brain/plasma, po, 1 mg/kg, mean brain/plasma ratio of CX157 concentrations, 1 mg/kg oral, 18 h
quantity: Kp at 18 h

| mol | obsValue |
| --- | --- |
| O=S1(=O)c2ccc(F)cc2Oc2cc(OCC(F)(F)F)ccc21 | 5.7 |
